Recorded RLU by entry
ASSAY SYSTEM: human TAS2R1 (Homo sapiens)
Construct: expressed in transfected cells; host or cells: HEK293T-Gα16gust44
ASSAY PROCEDURE: Calcium imaging assay (FLIPR), HEK293T-Gα16gust44 cells transfected with human TAS2R1
Format: cell-based
DETAILS: Time 227.562 s
// units = RLU; emit number, no label

Consider the following illustrative entries.
> print(dat)
                                smiles.repr  recorded.endpoint  result.unit  data.value
1  C[C@H](CCC(=O)O)[C@H]1CC[C@H]2[C@@H]3CC[C@@H]4C[C@H](O)CC[C@]4(C)[C@H]3CC[C@]12C                RLU          RLU     427.313
2  C[C@H](CCC(=O)O)[C@H]1CC[C@H]2[C@@H]3[C@@H](O)C[C@@H]4C[C@H](O)CC[C@]4(C)[C@H]3CC[C@]12C                RLU          RLU     32.3726
3  C[C@H](CCC(=O)O)[C@H]1CC[C@H]2[C@@H]3[C@H](O)C[C@@H]4C[C@H](O)CC[C@]4(C)[C@H]3CC[C@]12C                RLU          RLU     172.224

API: the following record is the query input.
Tell me measured RLU for C[C@H](CCC(=O)O)[C@H]1CC[C@H]2[C@@H]3[C@H](O)C[C@@H]4C[C@H](O)CC[C@]4(C)[C@H]3C[C@H](O)[C@]12C please.
6.904

----------
ASSAY SYSTEM: human TAS2R4 (Homo sapiens, UniProt Q9NYW5)
Construct: expressed in transfected cells; host or cells: HEK293T-Gα16gust44
Sequence (Q9NYW5 whole entry): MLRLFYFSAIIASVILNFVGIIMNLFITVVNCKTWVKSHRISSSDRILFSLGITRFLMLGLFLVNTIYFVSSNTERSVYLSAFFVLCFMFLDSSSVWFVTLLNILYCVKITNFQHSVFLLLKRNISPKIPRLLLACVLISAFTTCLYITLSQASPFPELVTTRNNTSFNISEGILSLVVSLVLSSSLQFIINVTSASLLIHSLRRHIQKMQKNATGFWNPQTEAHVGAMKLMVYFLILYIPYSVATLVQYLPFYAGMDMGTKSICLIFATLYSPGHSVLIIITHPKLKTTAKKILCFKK
ASSAY PROCEDURE: Calcium imaging assay (FLIPR), HEK293T-Gα16gust44 cells transfected with human TAS2R4; note: test concentration or dose not given here
Type: cell-based
DETAILS: Time (s) 96.781 (TCA, TLCA: 96.782)
Method: This set of bile acids was chosen because of their commercial availability in high purities, their diversity within the class of bile acids and their previous detection and quantitation in human blood. Stock solutions were prepared in DMSO. […] Measured data were negative control corrected by subtracting the signal of the mock-transfected cells and exported to Microsoft Excel using the FLIPR software ScreenWorks 4.2. […]
Recorded RLU, fluorescence trace by entry
// units = RLU; emit number, no label

Tell me measured RLU, fluorescence trace for C[C@H](CCC(=O)O)[C@H]1CC[C@H]2[C@@H]3[C@H](O)C[C@@H]4C[C@H](O)CC[C@]4(C)[C@H]3C[C@H](O)[C@]12C please.
577.048

Tell me measured RLU, fluorescence trace for C[C@H](CCC(=O)O)[C@H]1CC[C@H]2[C@@H]3CC[C@@H]4C[C@H](O)CC[C@]4(C)[C@H]3C[C@H](O)[C@]12C please.
353.364

Tell me measured RLU, fluorescence trace for C[C@H](CCC(=O)NCCS(=O)(=O)O)[C@H]1CC[C@H]2[C@@H]3CC[C@@H]4C[C@H](O)CC[C@]4(C)[C@H]3CC[C@]12C please.
303.134

----------
ASSAY SYSTEM: human TAS2R14 (Homo sapiens)
Construct: expressed in transfected cells; host or cells: HEK293T-Gα16gust44
Sequence (Q9NYV8 1-317): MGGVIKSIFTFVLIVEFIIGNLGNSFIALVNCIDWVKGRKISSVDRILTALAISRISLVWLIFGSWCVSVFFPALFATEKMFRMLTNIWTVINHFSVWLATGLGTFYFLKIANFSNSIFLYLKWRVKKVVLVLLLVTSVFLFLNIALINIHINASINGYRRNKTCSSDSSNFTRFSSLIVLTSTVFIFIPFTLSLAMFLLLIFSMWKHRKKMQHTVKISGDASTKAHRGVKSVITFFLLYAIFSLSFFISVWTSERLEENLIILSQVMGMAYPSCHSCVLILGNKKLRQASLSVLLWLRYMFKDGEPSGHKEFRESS
ASSAY PROCEDURE: Calcium imaging assay (FLIPR), HEK293T-Gα16gust44 cells transfected with human TAS2R14
Assay type: cell-based
DETAILS: TAS2R14 trace; Time (s) 106.797 (Chenodeoxycholic Acid 106.781)
RECORDED ENDPOINT: RLU (RLU)
// units = RLU; emit number, no label

> print(dat)
                                smiles.repr  data.value
1  C[C@H](CCC(=O)O)[C@H]1CC[C@H]2[C@@H]3[C@H](O)C[C@@H]4C[C@H](O)CC[C@]4(C)[C@H]3CC[C@]12C     563.223

API: the following record is the query input.
Tell me measured RLU for C[C@H](CCC(=O)O)[C@H]1CC[C@H]2[C@@H]3[C@H](O)C[C@@H]4C[C@H](O)CC[C@]4(C)[C@H]3C[C@H](O)[C@]12C please.
1256.04

----------
ASSAY SYSTEM: human TAS2R14 (Homo sapiens, UniProt Q9NYV8)
Construct: expressed in transfected cells; host or cells: HEK293T-Gα16gust44
ASSAY PROCEDURE: Calcium imaging assay (FLIPR), HEK293T-Gα16gust44 cells transfected with human TAS2R14
Assay type: cell-based
DETAILS: TAS2R14 trace; Time (s) 88.797 (Chenodeoxycholic Acid 88.781)
Cut-off 800 RLU on RLU, inclusive. At or above means criterion met; below means criterion not met.

> print(dat)
                                smiles.repr    label.value
1  C[C@H](CCC(=O)NCC(=O)O)[C@H]1CC[C@H]2[C@@H]3[C@H](O)C[C@@H]4C[C@H](O)CC[C@]4(C)[C@H]3C[C@H](O)[C@]12C  criterion met

Say whether C[C@H](CCC(=O)O)[C@H]1CC[C@H]2[C@@H]3[C@H](O)C[C@@H]4C[C@H](O)CC[C@]4(C)[C@H]3CC[C@]12C shows RLU of 800 RLU or more.
criterion not met

Say whether C[C@H](CCC(=O)O)[C@H]1CC[C@H]2[C@@H]3[C@H](O)C[C@@H]4C[C@H](O)CC[C@]4(C)[C@H]3C[C@H](O)[C@]12C shows RLU of 800 RLU or more.
criterion met

Say whether C[C@H](CCC(=O)NCCS(=O)(=O)O)[C@H]1CC[C@H]2[C@@H]3CC[C@@H]4C[C@H](O)CC[C@]4(C)[C@H]3CC[C@]12C shows RLU of 800 RLU or more.
criterion not met

----------
ASSAY SYSTEM: human TAS2R1 (Homo sapiens)
Construct: expressed in transfected cells; host or cells: HEK293T-Gα16gust44
Sequence (Q9NYW7 1-299): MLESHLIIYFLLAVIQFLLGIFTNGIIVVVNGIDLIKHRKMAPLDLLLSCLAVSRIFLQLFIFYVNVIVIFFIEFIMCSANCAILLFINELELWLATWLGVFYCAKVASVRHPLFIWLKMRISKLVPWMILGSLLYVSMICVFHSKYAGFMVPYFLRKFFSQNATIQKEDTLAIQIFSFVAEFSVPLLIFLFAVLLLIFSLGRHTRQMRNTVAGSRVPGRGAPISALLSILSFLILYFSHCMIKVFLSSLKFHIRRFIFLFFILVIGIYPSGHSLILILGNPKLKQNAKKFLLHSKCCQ
ASSAY PROCEDURE: Calcium imaging assay (FLIPR), HEK293T-Gα16gust44 cells transfected with human TAS2R1
Type: cell-based
DETAILS: Time 6 s
Recorded RLU by entry
// units = RLU; emit number, no label

Consider the following illustrative entries.
> print(dat)
                                smiles.repr  data.value
1  C[C@H](CCC(=O)O)[C@H]1CC[C@H]2[C@@H]3CC[C@@H]4C[C@H](O)CC[C@]4(C)[C@H]3C[C@H](O)[C@]12C       3.521
2  C[C@H](CCC(=O)NCCS(=O)(=O)O)[C@H]1CC[C@H]2[C@@H]3CC[C@@H]4C[C@H](O)CC[C@]4(C)[C@H]3CC[C@]12C     11.8088
3  C[C@H](CCC(=O)NCC(=O)O)[C@H]1CC[C@H]2[C@@H]3[C@H](O)C[C@@H]4C[C@H](O)CC[C@]4(C)[C@H]3C[C@H](O)[C@]12C      -2.093

Tell me RLU of C[C@H](CCC(=O)NCCS(=O)(=O)O)[C@H]1CC[C@H]2[C@@H]3[C@H](O)C[C@@H]4C[C@H](O)CC[C@]4(C)[C@H]3C[C@H](O)[C@]12C when tested on human TAS2R1 (Homo sapiens).
-3.167

----------
ASSAY SYSTEM: mouse Tas2r144 (Mus musculus)
Construct: expressed in transfected cells; host or cells: HEK293T-Gα16gust44
Sequence (Q7TQB8 whole entry): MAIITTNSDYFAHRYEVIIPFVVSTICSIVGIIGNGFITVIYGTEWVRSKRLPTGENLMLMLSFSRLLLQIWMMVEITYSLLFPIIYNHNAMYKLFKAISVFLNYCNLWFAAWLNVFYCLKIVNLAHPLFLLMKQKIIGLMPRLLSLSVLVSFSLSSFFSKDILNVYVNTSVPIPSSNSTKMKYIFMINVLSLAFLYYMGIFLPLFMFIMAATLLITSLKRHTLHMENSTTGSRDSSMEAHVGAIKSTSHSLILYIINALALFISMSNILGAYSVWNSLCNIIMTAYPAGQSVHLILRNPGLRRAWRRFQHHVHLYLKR
ASSAY PROCEDURE: Calcium imaging assay (FLIPR), HEK293T-Gα16gust44 cells transfected with mouse Tas2r144
Format: cell-based
DETAILS: Time 38.781 s
RECORDED ENDPOINT: RLU (RLU)
// units = RLU; emit number, no label

Consider the following illustrative entries.
> print(dat)
                                smiles.repr  data.value
1  C[C@H](CCC(=O)NCC(=O)O)[C@H]1CC[C@H]2[C@@H]3[C@H](O)C[C@@H]4C[C@H](O)CC[C@]4(C)[C@H]3C[C@H](O)[C@]12C     320.611
2  C[C@H](CCC(=O)NCCS(=O)(=O)O)[C@H]1CC[C@H]2[C@@H]3[C@H](O)C[C@@H]4C[C@H](O)CC[C@]4(C)[C@H]3C[C@H](O)[C@]12C     375.923
3  C[C@H](CCC(=O)O)[C@H]1CC[C@H]2[C@@H]3[C@H](O)C[C@@H]4C[C@H](O)CC[C@]4(C)[C@H]3C[C@H](O)[C@]12C     565.569

API: the following record is the query input.
Tell me measured RLU for C[C@H](CCC(=O)NCCS(=O)(=O)O)[C@H]1CC[C@H]2[C@@H]3CC[C@@H]4C[C@H](O)CC[C@]4(C)[C@H]3CC[C@]12C please.
184.237
